Task for the reader: assign each of the following compounds its reported Selectivity index IV/XII.
- testedOn: UniProt O43570
- testName: stopped-flow CO2 hydrase assay, hCA XII
- Type: biochemical
- conditionDetails: ratio KI hCA IV / KI hCA XII
Lab note: write the figure by itself, no unit.

The measured Selectivity index IV/XII associated with NS(=O)(=O)c1ccc(Nc2nc3nccc(-c4ccncc4)n3n2)cc1 [Compound 1c] reads 47.5

Notebook: NS(=O)(=O)c1ccc(Nc2nc3nccc(-c4cccs4)n3n2)cc1 [Compound 1b] , Selectivity index IV/XII read as 39.7

Record Cc1cccc(-c2ccnc3nc(Nc4ccc(S(N)(=O)=O)cc4)nn23)c1 [Compound 1u] , field Selectivity index IV/XII: 69.0

Record summary for NS(=O)(=O)c1ccc(Nc2nc3nccc(-c4c(F)ccc(F)c4F)n3n2)cc1 [Compound 1j] : reported Selectivity index IV/XII = 123

###

- testedOn: hCA XII (Homo sapiens, UniProt O43570)
- Sequence (O43570 25-354): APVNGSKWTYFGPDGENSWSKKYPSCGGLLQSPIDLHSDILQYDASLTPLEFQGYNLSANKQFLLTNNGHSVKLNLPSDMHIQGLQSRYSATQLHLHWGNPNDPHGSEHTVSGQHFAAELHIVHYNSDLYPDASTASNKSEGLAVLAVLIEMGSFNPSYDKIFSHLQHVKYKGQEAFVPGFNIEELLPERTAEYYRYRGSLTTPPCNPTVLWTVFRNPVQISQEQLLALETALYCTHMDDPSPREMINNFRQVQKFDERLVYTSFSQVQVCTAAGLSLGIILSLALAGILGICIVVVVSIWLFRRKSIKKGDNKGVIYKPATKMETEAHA
- testName: stopped-flow CO2 hydrase assay, hCA XII
- Type: biochemical
- conditionDetails: ratio KI hCA I / KI hCA XII
observable: Selectivity index I/XII

response.value for NS(=O)(=O)c1ccc(Nc2nc3nccc(-c4cccs4)n3n2)cc1 (field: Selectivity index I/XII) = 7.5

Per the record, NS(=O)(=O)c1ccc(Nc2nc3nccc(-c4ccncc4)n3n2)cc1 has Selectivity index I/XII of 47.4

The compound identified as NS(=O)(=O)c1ccc(Nc2nc3nccc(-c4cccc(F)c4)n3n2)cc1 registered its Selectivity index I/XII at 12.9

Lab note: measured Selectivity index I/XII of NS(=O)(=O)c1ccc(Nc2nc3nccc(-c4cccc([N+](=O)[O-])c4)n3n2)cc1 was 806

Documented Selectivity index I/XII of COc1ccccc1-c1ccnc2nc(Nc3ccc(S(N)(=O)=O)cc3)nn12 : 69.5

Selectivity index I/XII measured on NS(=O)(=O)c1ccc(Nc2nc3nccc(-c4ccc(F)cc4)n3n2)cc1 = 12.2

The reported value for NS(=O)(=O)c1ccc(Nc2nc3nccc(-c4ccccc4[N+](=O)[O-])n3n2)cc1 in terms of Selectivity index I/XII is 173

Form: compound = COc1cc(OC)cc(-c2ccnc3nc(Nc4ccc(S(N)(=O)=O)cc4)nn23)c1 ; Selectivity index I/XII = 167

The value of Selectivity index I/XII measured for the compound Cc1ccc(-c2ccnc3nc(Nc4ccc(S(N)(=O)=O)cc4)nn23)cc1 turned out to be 24.0

// field: Selectivity index I/XII; key: COc1ccc(-c2ccnc3nc(Nc4ccc(S(N)(=O)=O)cc4)nn23)cc1OC ; value = 110

Noted for NS(=O)(=O)c1ccc(Nc2nc3nccc(-c4ccc(Cl)cc4)n3n2)cc1 : its Selectivity index I/XII reads 77.1

The reported value for NS(=O)(=O)c1ccc(Nc2nc3nccc(-c4ccccc4F)n3n2)cc1 in terms of Selectivity index I/XII is 26.4

Recorded Selectivity index I/XII (compound NS(=O)(=O)c1ccc(Nc2nc3nccc(-c4ccccc4)n3n2)cc1 ): 11.7

So for NS(=O)(=O)c1ccc(Nc2nc3nccc(-c4ccccc4Cl)n3n2)cc1 , the logged Selectivity index I/XII turned out to be 541

Selectivity index I/XII recorded for this compound, COc1ccc(-c2ccnc3nc(Nc4ccc(S(N)(=O)=O)cc4)nn23)cc1 , is 40.9

Value of Selectivity index I/XII reported for the compound NS(=O)(=O)c1ccc(Nc2nc3nccc(-c4ccc([N+](=O)[O-])cc4)n3n2)cc1 is 102

compound Cc1cccc(-c2ccnc3nc(Nc4ccc(S(N)(=O)=O)cc4)nn23)c1 , Selectivity index I/XII observed: 20.0

Given item COc1cccc(-c2ccnc3nc(Nc4ccc(S(N)(=O)=O)cc4)nn23)c1 , the value recorded as its Selectivity index I/XII is 84.5

Kindly note the recorded Selectivity index I/XII for NS(=O)(=O)c1ccc(Nc2nc3nccc(-c4c(F)ccc(F)c4F)n3n2)cc1 , which is 91.9

Looking up NS(=O)(=O)c1ccc(Nc2nc3nccc(-c4ccc(Br)cc4)n3n2)cc1 , I found its Selectivity index I/XII recorded as 57.8

According to the records, this compound CCOc1ccc(-c2ccnc3nc(Nc4ccc(S(N)(=O)=O)cc4)nn23)cc1 displays Selectivity index I/XII of 40.9

So, Cc1ccccc1-c1ccnc2nc(Nc3ccc(S(N)(=O)=O)cc3)nn12 ? Its Selectivity index I/XII was 88.1

// NS(=O)(=O)c1ccc(Nc2nc3nccc(-c4cccc(Br)c4)n3n2)cc1 : Selectivity index I/XII value = 117

The compound identified as NS(=O)(=O)c1ccc(Nc2nc3nccc(-c4ccc(I)cc4)n3n2)cc1 registered its Selectivity index I/XII at 196

Reported Selectivity index I/XII for NS(=O)(=O)c1ccc(Nc2nc3nccc(-c4cccc(Cl)c4)n3n2)cc1 was 142

For this compound ( NS(=O)(=O)c1ccc(Nc2nc3nccc(-c4c(F)cccc4F)n3n2)cc1 ), measured Selectivity index I/XII is 33

###

- testedOn: hCA XII (Homo sapiens, UniProt O43570)
- testName: stopped-flow CO2 hydrase assay, hCA XII
- Format: biochemical
- conditionDetails: ratio KI hCA IV / KI hCA XII
observable: Selectivity index IV/XII
Lab note: record the figure alone, no unit after it.

Kindly note: hCA XII (Homo sapiens, UniProt O43570), NS(=O)(=O)c1ccc(Nc2nc3nccc(-c4ccc(I)cc4)n3n2)cc1 , Selectivity index IV/XII value reported: 227

Bench note, hCA XII (Homo sapiens, UniProt O43570): NS(=O)(=O)c1ccc(Nc2nc3nccc(-c4ccccc4F)n3n2)cc1 , Selectivity index IV/XII reads 35.7

Measured Selectivity index IV/XII for this entry NS(=O)(=O)c1ccc(Nc2nc3nccc(-c4cccc(Cl)c4)n3n2)cc1 on hCA XII (Homo sapiens, UniProt O43570): 129

Given the compound CCOc1ccc(-c2ccnc3nc(Nc4ccc(S(N)(=O)=O)cc4)nn23)cc1 and test system hCA XII (Homo sapiens, UniProt O43570), the measured Selectivity index IV/XII is 66.1

Form field Selectivity index IV/XII for item NS(=O)(=O)c1ccc(Nc2nc3nccc(-c4c(F)cccc4F)n3n2)cc1 on hCA XII (Homo sapiens, UniProt O43570): 31.2

###

- testedOn: hCA XII (Homo sapiens, UniProt O43570)
- testName: stopped-flow CO2 hydrase assay, hCA XII
- Assay type: biochemical
- conditionDetails: ratio KI hCA II / KI hCA XII
Field: Selectivity index II/XII. Provide a value for each of the compounds that follow.
Form field (numeric): enter value without unit.

Lab entry: hCA XII (Homo sapiens, UniProt O43570) assay, compound NS(=O)(=O)c1ccc(Nc2nc3nccc(-c4cccc(Br)c4)n3n2)cc1 , Selectivity index II/XII = 1.7

Summary: Cc1cccc(-c2ccnc3nc(Nc4ccc(S(N)(=O)=O)cc4)nn23)c1 , hCA XII (Homo sapiens, UniProt O43570), Selectivity index II/XII = 0.8

Hey, hCA XII (Homo sapiens, UniProt O43570) data for COc1cccc(-c2ccnc3nc(Nc4ccc(S(N)(=O)=O)cc4)nn23)c1 : Selectivity index II/XII came out at 2.7

With hCA XII (Homo sapiens, UniProt O43570) as the test system, NS(=O)(=O)c1ccc(Nc2nc3nccc(-c4c(F)ccc(F)c4F)n3n2)cc1 showed Selectivity index II/XII of 2.6

Let me check: COc1ccccc1-c1ccnc2nc(Nc3ccc(S(N)(=O)=O)cc3)nn12 , system hCA XII (Homo sapiens, UniProt O43570), measured Selectivity index II/XII is 2.3

Field Selectivity index II/XII (system: hCA XII (Homo sapiens, UniProt O43570)) for entry NS(=O)(=O)c1ccc(Nc2nc3nccc(-c4ccc(Cl)cc4)n3n2)cc1 = 2.1

###

- testedOn: hCA XII (Homo sapiens, UniProt O43570)
- testName: stopped-flow CO2 hydrase assay, hCA XII
- Format: biochemical
- conditionDetails: ratio KI hCA IV / KI hCA XII
observable: Selectivity index IV/XII
Response field accepts a number only; no unit should be typed.

Sure, the documented Selectivity index IV/XII for NS(=O)(=O)c1ccc(Nc2nc3nccc(-c4cccc(Br)c4)n3n2)cc1 [Compound 1o] is 55.1

In plain terms, NS(=O)(=O)c1ccc(Nc2nc3nccc(-c4ccc(F)cc4)n3n2)cc1 [Compound 1f] has a documented Selectivity index IV/XII of 15.9

Documented Selectivity index IV/XII of NS(=O)(=O)c1ccc(Nc2nc3nccc(-c4cccc(F)c4)n3n2)cc1 [Compound 1g] : 20.0

The recorded Selectivity index IV/XII for COc1cccc(-c2ccnc3nc(Nc4ccc(S(N)(=O)=O)cc4)nn23)c1 [Compound 1x] is 44.8

Selectivity index IV/XII recorded for this molecule, Cc1ccc(-c2ccnc3nc(Nc4ccc(S(N)(=O)=O)cc4)nn23)cc1 [Compound 1t] , is 37.4

Recorded result, NS(=O)(=O)c1ccc(Nc2nc3nccc(-c4cccc([N+](=O)[O-])c4)n3n2)cc1 [Compound 1r] , Selectivity index IV/XII: 160

Value of Selectivity index IV/XII reported for the molecule Cc1ccccc1-c1ccnc2nc(Nc3ccc(S(N)(=O)=O)cc3)nn12 [Compound 1v] is 290

The recorded Selectivity index IV/XII for NS(=O)(=O)c1ccc(Nc2nc3nccc(-c4ccccc4[N+](=O)[O-])n3n2)cc1 [Compound 1s] is 81.4

Given item COc1ccc(-c2ccnc3nc(Nc4ccc(S(N)(=O)=O)cc4)nn23)cc1 [Compound 1w] , the value recorded as its Selectivity index IV/XII is 50.3

Recorded Selectivity index IV/XII (molecule NS(=O)(=O)c1ccc(Nc2nc3nccc(-c4ccc(Cl)cc4)n3n2)cc1 [Compound 1k] ): 137

The value of Selectivity index IV/XII measured for the molecule COc1cc(OC)cc(-c2ccnc3nc(Nc4ccc(S(N)(=O)=O)cc4)nn23)c1 [Compound 1aa] turned out to be 37.2

Measured Selectivity index IV/XII, NS(=O)(=O)c1ccc(Nc2nc3nccc(-c4ccccc4)n3n2)cc1 [Compound 1a] : 18.5

The value of Selectivity index IV/XII measured for the molecule NS(=O)(=O)c1ccc(Nc2nc3nccc(-c4ccc([N+](=O)[O-])cc4)n3n2)cc1 [Compound 1q] turned out to be 77.4

For reference, reported Selectivity index IV/XII for COc1ccc(-c2ccnc3nc(Nc4ccc(S(N)(=O)=O)cc4)nn23)cc1OC [Compound 1ab] stands at 169

Query COc1ccccc1-c1ccnc2nc(Nc3ccc(S(N)(=O)=O)cc3)nn12 [Compound 1y] yields Selectivity index IV/XII of 200

NS(=O)(=O)c1ccc(Nc2nc3nccc(-c4ccccc4Cl)n3n2)cc1 [Compound 1m] has a reported Selectivity index IV/XII of 384

Selectivity index IV/XII measured on NS(=O)(=O)c1ccc(Nc2nc3nccc(-c4ccc(Br)cc4)n3n2)cc1 [Compound 1n] = 89.6
